Listed here: items and their measured OD492.
Target: T1, HCV Core1-169 (HCV-1, UniProt P26664 1-169)
T1 construct: also called Solid Phase HCV Core
T1 sequence: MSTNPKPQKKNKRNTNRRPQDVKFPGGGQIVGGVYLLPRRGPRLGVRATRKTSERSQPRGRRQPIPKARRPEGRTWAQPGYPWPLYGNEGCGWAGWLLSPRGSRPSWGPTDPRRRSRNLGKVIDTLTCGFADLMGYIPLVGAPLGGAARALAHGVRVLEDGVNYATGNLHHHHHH
Test: sandwich EIA, capture 208A-692
Record the value in OD, omitting the unit from your answer.

binder	value type	units label	endpoint result
HCV 208B-1096 (antibody, V domains shown) VH: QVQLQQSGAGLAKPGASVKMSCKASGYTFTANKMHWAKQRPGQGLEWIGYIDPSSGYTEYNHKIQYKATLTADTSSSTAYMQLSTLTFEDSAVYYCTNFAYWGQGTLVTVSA VL: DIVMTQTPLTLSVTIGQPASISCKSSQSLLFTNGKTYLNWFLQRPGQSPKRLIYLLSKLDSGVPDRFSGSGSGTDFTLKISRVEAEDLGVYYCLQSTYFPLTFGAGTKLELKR	OD492	OD	0.15

Consider the record given below.
Give OD492 for HCV 208A-293 (antibody, V domains shown) VH: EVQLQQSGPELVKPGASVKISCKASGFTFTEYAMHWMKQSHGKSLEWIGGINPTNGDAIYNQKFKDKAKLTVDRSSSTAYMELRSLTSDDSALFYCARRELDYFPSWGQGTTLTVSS VL: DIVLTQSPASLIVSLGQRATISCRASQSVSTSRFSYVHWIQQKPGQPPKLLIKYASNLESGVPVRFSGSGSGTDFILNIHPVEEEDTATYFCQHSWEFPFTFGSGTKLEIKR
0.34
